Reported log10 IC50 values for the following molecules.
test_target: Glycogen synthase kinase-3 beta (Homo sapiens)
assay_explanation: Inhibition of recombinant human GSK-3beta using prephosphorylated GS-1 peptide as substrate after 1 hr in presence of [gamma-32P]ATP by liquid scintillation spectrometric method
Log10 applied to IC50; unit prior to transform: nM.

Field: example entries. Status: answers known.
molecule | reported
Cn1c(N2CCNC(c3ccc(Cl)c(Cl)c3)C2)nc(-c2ccncc2)cc1=O (stereo not drawn) | 0.63
COc1ccc(C2CN(c3nc(-c4ccncc4)cc(=O)n3C)CCN2)cc1OC (stereo not drawn) | 0.72
Cn1c(N2CCNC(c3ccc(Br)cc3)C2)nc(-c2ccncn2)cc1=O (racemic) | 0.91
Cn1c(N2CCNC(c3ccccc3)C2)nc(-c2ccncc2)cc1=O (racemic) | 1.26

Input Cn1c(N2CCNC(c3ccc(F)cc3)C2)nc(-c2ccncc2)cc1=O (racemic) , output reported log10 IC50.
1.26

Input Cn1c(N2CCNC(c3cccc(Br)c3)C2)nc(-c2ccncn2)cc1=O (racemic) , output reported log10 IC50.
0.30

Input COc1cc(F)ccc1C1CN(c2nc(-c3ccncc3)cc(=O)n2C)CCN1 (racemic) , output reported log10 IC50.
-0.05

Input COc1ccccc1C1CN(c2nc(-c3ccncn3)cc(=O)n2C)CCN1 (stereo not drawn) , output reported log10 IC50.
0.26

Input Cn1c(N2CCNC(c3ccccc3Br)C2)nc(-c2ccncn2)cc1=O (racemic) , output reported log10 IC50.
0.63

Input Cn1c(N2CCNC(c3ccccc3F)C2)nc(-c2ccncn2)cc1=O (stereo not drawn) , output reported log10 IC50.
0.91

Input COc1cc(F)ccc1C1CN(c2nc(-c3ccncn3)cc(=O)n2C)CCN1 (single isomer, unassigned; enantiomer 2) , output reported log10 IC50.
-0.60

Input COc1cc(F)ccc1C1CN(c2nc(-c3ccncn3)cc(=O)n2C)CCN1Cc1ccccc1 (stereo not drawn) , output reported log10 IC50.
2.34

Input COc1cc(F)cc(F)c1C1CN(c2nc(-c3ccncn3)cc(=O)n2C)CCN1 (stereo not drawn) , output reported log10 IC50.
0.23

Input COc1cc(F)ccc1C1CN(c2nc(-c3ccncn3)cc(=O)n2C)CCN1 (single isomer, unassigned; Enantiomer-1) , output reported log10 IC50.
1.64

Input Cn1c(N2CCNC(c3ccc(C#N)cc3)C2)nc(-c2ccncn2)cc1=O (racemic) , output reported log10 IC50.
0.87

Input COc1ccccc1C1CN(c2nc(-c3ccncc3)cc(=O)n2C)CCN1 (racemic) , output reported log10 IC50.
0.26

Input CCOc1ccccc1C1CN(c2nc(-c3ccncc3)cc(=O)n2C)CCN1 (stereo not drawn) , output reported log10 IC50.
1.40

Input COc1ccc(C2CN(c3nc(-c4ccncc4)cc(=O)n3C)CCN2)cc1 (racemic) , output reported log10 IC50.
0.67

Input Cn1c(N2CCNC(c3ccc(Br)cc3)C2)nc(-c2ccncc2)cc1=O (racemic) , output reported log10 IC50.
1.34

Input Cn1c(N2CCNC(c3ccccc3F)C2)nc(-c2ccncc2)cc1=O (stereo not drawn) , output reported log10 IC50.
1.04

Input Cn1c(N2CCNC(c3ccc(Cl)cc3)C2)nc(-c2ccncc2)cc1=O (racemic) , output reported log10 IC50.
0.82

Input Cn1c(N2CCNC(c3ccc(Cl)cc3)C2)nc(-c2ccncn2)cc1=O (racemic) , output reported log10 IC50.
0.23

Input Cn1c(N2CCNC(c3cccc(Cl)c3)C2)nc(-c2ccncc2)cc1=O (racemic) , output reported log10 IC50.
0.73

Input Cn1c(N2CCNC(c3cccc(Cl)c3)C2)nc(-c2ccncn2)cc1=O (racemic) , output reported log10 IC50.
0.04

Input Cn1c(N2CCNC(c3ccccc3Cl)C2)nc(-c2ccncn2)cc1=O (racemic) , output reported log10 IC50.
0.41

Input Cc1cc(F)ccc1C1CN(c2nc(-c3ccncc3)cc(=O)n2C)CCN1 (stereo not drawn) , output reported log10 IC50.
1.38

Input "Cn1c(N2CCN[C@@H](c3ccc(Cl)cc3)C2)nc(-c2ccncn2)cc1=O" , output reported log10 IC50.
0.08

Input COc1ccc(C2CN(c3nc(-c4ccncn4)cc(=O)n3C)CCN2)cc1OC (stereo not drawn) , output reported log10 IC50.
0.89

Input COc1cc(F)ccc1C1CN(c2nc(-c3ccncn3)cc(=O)n2C)CCN1 (racemic) , output reported log10 IC50.
-0.14

Input COc1cc(F)ccc1C1CN(c2nc(-c3ccncn3)cc(=O)n2C)CCN1C(C)=O (stereo not drawn) , output reported log10 IC50.
3.18

###

Reported pIC50 values for the following compounds.
test_target: Cytochrome P450 3A4 (Homo sapiens)
Sequence (P08684 whole entry): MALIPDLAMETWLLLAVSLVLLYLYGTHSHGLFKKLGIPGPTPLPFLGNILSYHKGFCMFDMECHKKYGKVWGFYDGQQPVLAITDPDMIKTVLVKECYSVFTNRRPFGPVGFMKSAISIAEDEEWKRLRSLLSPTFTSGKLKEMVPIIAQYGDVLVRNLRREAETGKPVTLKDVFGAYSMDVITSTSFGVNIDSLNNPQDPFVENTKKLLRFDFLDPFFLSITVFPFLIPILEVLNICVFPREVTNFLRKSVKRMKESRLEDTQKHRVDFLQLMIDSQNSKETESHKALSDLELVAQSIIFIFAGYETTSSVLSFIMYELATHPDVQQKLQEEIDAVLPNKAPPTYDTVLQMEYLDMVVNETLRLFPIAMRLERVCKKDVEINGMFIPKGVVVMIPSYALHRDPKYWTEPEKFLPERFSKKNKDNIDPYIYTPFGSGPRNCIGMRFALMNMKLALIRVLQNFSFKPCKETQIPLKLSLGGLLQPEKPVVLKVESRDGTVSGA
assay_explanation: Inhibition of recombinant human CYP3A4
Format: ADME
pIC50: −log10 of the molar value.

Field: example entries. Status: answers known.
compound | pIC50
COc1cc(F)ccc1C1CN(c2nc(-c3ccncn3)cc(=O)n2C)CCN1 (single isomer, unassigned; Enantiomer-1) | < 4.30
COc1ccccc1C1CN(c2nc(-c3ccncc3)cc(=O)n2C)CCN1 (racemic) | < 4.30
COc1cc(F)ccc1C1CN(c2nc(-c3ccncc3)cc(=O)n2C)CCN1 (racemic) | < 4.28
COc1cccc(C2CN(c3nc(-c4ccncc4)cc(=O)n3C)CCN2)c1 (racemic) | < 4.30
COc1cc(F)ccc1C1CN(c2nc(-c3ccncc3)cc(=O)n2C)CCN1 (single isomer, unassigned; enantiomer 2) | < 4.30

Input COc1cc(F)ccc1C1CN(c2nc(-c3ccncc3)cc(=O)n2C)CCN1 (single isomer, unassigned; enantiomer 1) , output reported pIC50.
< 4.30

###

test_target: Cytochrome P450 2D6 (Homo sapiens)
Sequence (P10635 whole entry): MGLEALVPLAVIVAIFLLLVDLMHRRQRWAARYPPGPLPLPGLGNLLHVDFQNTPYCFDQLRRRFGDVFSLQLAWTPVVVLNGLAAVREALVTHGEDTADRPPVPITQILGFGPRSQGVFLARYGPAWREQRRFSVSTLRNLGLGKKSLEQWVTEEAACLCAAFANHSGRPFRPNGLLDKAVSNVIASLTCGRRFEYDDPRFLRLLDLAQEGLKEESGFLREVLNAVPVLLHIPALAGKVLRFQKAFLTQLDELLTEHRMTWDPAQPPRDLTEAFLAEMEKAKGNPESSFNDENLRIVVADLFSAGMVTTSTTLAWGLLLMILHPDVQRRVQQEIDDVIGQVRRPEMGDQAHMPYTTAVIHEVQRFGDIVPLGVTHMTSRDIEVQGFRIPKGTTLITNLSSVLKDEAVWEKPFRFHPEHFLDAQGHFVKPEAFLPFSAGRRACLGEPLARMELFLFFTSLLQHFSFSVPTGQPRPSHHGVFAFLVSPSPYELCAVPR
assay_explanation: Inhibition of CYP2D6 in human liver microsomes
Type: ADME
measured_property: IC50 (µM)
Please give a number only; it is taken to be in µM.

Input COc1ccc(C2CN(c3nc(-c4ccncc4)cc(=O)n3C)CCN2)cc1 (racemic) , output reported IC50.
45

###

test_target: Glycogen synthase kinase-3 beta (Homo sapiens, UniProt P49841)
Sequence (P49841 whole entry): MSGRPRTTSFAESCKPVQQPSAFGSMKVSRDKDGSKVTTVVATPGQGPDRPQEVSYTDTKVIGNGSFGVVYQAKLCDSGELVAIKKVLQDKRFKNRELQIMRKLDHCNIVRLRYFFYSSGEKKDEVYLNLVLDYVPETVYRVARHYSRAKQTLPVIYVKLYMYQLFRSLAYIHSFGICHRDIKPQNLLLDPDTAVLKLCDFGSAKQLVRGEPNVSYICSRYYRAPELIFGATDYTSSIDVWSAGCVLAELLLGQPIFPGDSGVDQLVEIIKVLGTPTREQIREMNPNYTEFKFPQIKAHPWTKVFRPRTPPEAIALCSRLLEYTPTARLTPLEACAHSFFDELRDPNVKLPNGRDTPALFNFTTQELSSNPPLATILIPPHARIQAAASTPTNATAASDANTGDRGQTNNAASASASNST
assay_explanation: Inhibition of recombinant human GSK-3beta using prephosphorylated GS-1 peptide as substrate after 1 hr in presence of [gamma-32P]ATP by liquid scintillation spectrometric method
measured_property: pIC50
// scale note: pIC50 = -log10(conc_M); give the bare number

Field: example entries. Status: answers known.
compound | pIC50
COc1cc(F)ccc1C1CN(c2nc(-c3ccncc3)cc(=O)n2C)CCN1Cc1ccccc1 (stereo not drawn) | 5.92
Cn1c(N2CCN[C@H](c3ccc(Cl)cc3)C2)nc(-c2ccncn2)cc1=O | 7.59
Cn1c(N2CCNC(c3cccc(F)c3)C2)nc(-c2ccncc2)cc1=O (racemic) | 7.66

Proceeding to the next compound to report its pIC50.
Input Cn1c(N2CCNC(c3ccccc3Br)C2)nc(-c2ccncc2)cc1=O (racemic) , output reported pIC50.
7.89

###

test_target: Glycogen synthase kinase-3 beta (Homo sapiens)
assay_explanation: Inhibition of recombinant human GSK-3beta using prephosphorylated GS-1 peptide as substrate after 1 hr in presence of [gamma-32P]ATP by liquid scintillation spectrometric method
Reported pIC50 values for the following compounds.
// scale note: pIC50 = -log10(conc_M); give the bare number

compound | pIC50
COc1cccc(C2CN(c3nc(-c4ccncc4)cc(=O)n3C)CCN2)c1 (racemic) | 7.96
Cn1c(N2CCNC(c3cccc(F)c3)C2)nc(-c2ccncn2)cc1=O (racemic) | 7.92
Cn1c(N2CCN[C@H](c3ccc(Cl)cc3)C2)nc(-c2ccncc2)cc1=O | 6.96

Proceeding to the next compound to report its pIC50.
Input Cn1c(N2CCNC(c3ccc(F)cc3)C2)nc(-c2ccncn2)cc1=O (racemic) , output reported pIC50.
8.07
